Test system: DU-145 prostate
Method: NCI-60 one-dose screen, 48 h (100 = growth as untreated, 0 = no growth, -100 = all killed)
Experimental context: 10 µM unless noted
The panel holds about 83,000 compounds, 20% with a hit somewhere; the sample as a whole holds those more often.
Field: growth. Provide a value for each of the molecules that follow.
Numbers only here, please. The scale is %.

**Query** State, in one line, measured growth of Cc1ccc2c(N)c(C(=O)Nc3ccc(OC(F)(F)F)cc3)sc2n1
**Result** 82.1

**Query** State, in one line, measured growth of CCC(C)(C)c1ccc(OCCCCCCN2CCN(c3ccncc3)CC2)cc1
**Result** 35.5

**Query** State, in one line, measured growth of C=C1CCC2C3(C)COC(c4ccccc4F)OC3CCC2(C)C1CC(O)C1=CCOC1=O (configuration not stated)
**Result** 67.2

**Query** State, in one line, measured growth of Cc1ccc([C@H]2C(C(=O)c3ccc(Cl)cc3)C3(N[C@@H]2c2ccccc2)C(=O)Nc2ccccc23)cc1 (some centres not stated)
**Result** 80.2

**Query** State, in one line, measured growth of Cc1cc(=O)oc2cc(OCCCOc3ccc(/C=C/C(=O)Nc4ccccc4N)cc3)ccc12
**Result** 33.1

**Query** State, in one line, measured growth of C=Cn1cc(C(=O)O)c(=O)c2cc(F)c(N3CCN(c4nccc(-c5nccs5)n4)CC3)cc21
**Result** -3.99

**Query** State, in one line, measured growth of COc1cc2c(c(OC)c1OC)C(=O)CC(c1cccc(NC(=O)c3cc(N)ccc3Cl)c1)O2 (configuration not stated)
**Result** 47.3

**Query** State, in one line, measured growth of CC(=O)Nc1ccc(C(=O)NC(=S)Nc2ccc(S(N)(=O)=O)cc2)cc1
**Result** 105

**Query** State, in one line, measured growth of Cc1ccc(-c2nc(C#N)c(S(=O)(=O)N3CCN(S(=O)(=O)c4ccc(Cl)cc4)CC3)o2)cc1
**Result** 97.4

**Query** State, in one line, measured growth of CCCCSc1nc(NCCc2c[nH]c3ccccc23)c(C#N)c(-c2ccc(F)cc2)n1
**Result** 66.4

**Query** State, in one line, measured growth of O=c1oc2ccccc2cc1-c1csc(N=Nc2c(O)[nH]c3ccc(Cl)cc23)n1
**Result** 98

**Query** State, in one line, measured growth of O=C(CN1C(=O)/C(=C/c2ccccc2Cl)SC1=S)N1CCOCC1
**Result** 78.1

**Query** State, in one line, measured growth of NS(=O)(=O)c1ccc(N=Nc2c(O)n(CC(=O)Nc3ccccc3)c3ccccc23)cc1
**Result** 21.2

**Query** State, in one line, measured growth of S=C(Nc1ccc(OCc2nc3ccccc3[nH]2)cc1)NC1CCCCC1
**Result** 98.4

**Query** State, in one line, measured growth of Cn1cc(-c2cc(N)n3nc(-c4cn(C)c5ccccc45)cc3n2)c2cc(Cl)ccc21
**Result** 22

**Query** State, in one line, measured growth of N#Cc1c(-c2ccccc2Cl)cc(-c2ccc3ccccc3c2)[nH]c1=O
**Result** 49

**Query** State, in one line, measured growth of COc1cc(OC)c2c3nc4cc(C)c(C)cc4nc3n(CCN(C)C)c2c1
**Result** 60.4

**Query** State, in one line, measured growth of CN1CCN(Cc2ccc(C(=O)Nc3cccc(C#Cc4cccc5[nH]nc(N)c45)c3)cc2C(F)(F)F)CC1
**Result** -68

**Query** State, in one line, measured growth of COc1cc(/C=C/C(=O)c2nnn(-c3ccc(Cl)cc3)c2C)cc(OC)c1OC
**Result** 17.3

**Query** State, in one line, measured growth of Nc1nc(C(F)(F)F)cs1
**Result** 109

**Query** State, in one line, measured growth of COc1ccc(CCC2c3c(cc4c(c3OC)OCO4)CCN2C)cc1 (configuration not stated)
**Result** 5.2

**Query** State, in one line, measured growth of CC12CC[C@@H]3[C@]4(C)COC(c5cn[nH]c5-c5ccc(Cl)cc5)O[C@@H]4CC[C@@]3(C)[C@@H]1CC(C1=CCOC1=O)O2 (some centres not stated)
**Result** 61.6

**Query** State, in one line, measured growth of O=C(NN1C(=O)/C(=C/C=C/c2ccc([N+](=O)[O-])o2)SC1=S)c1cccc(O)c1
**Result** -99.2

**Query** State, in one line, measured growth of Cc1cnc(C(=O)NNc2nc3cc(F)ccc3n3c(C(=O)N4CC5CC(C4)N5)ccc23)cn1
**Result** 48.8

**Query** State, in one line, measured growth of COc1ccc(-c2nc3cc(C)ccc3n2CC(=O)N=Nc2c(O)[nH]c3ccc(OC)cc23)cc1
**Result** 8.56

**Query** State, in one line, measured growth of CCCSc1nc(Nc2ccc(S(N)(=O)=O)cc2)c(C#N)c(-c2cc(OC)c(OC)c(OC)c2)n1
**Result** 26.2

**Query** State, in one line, measured growth of COc1cc(NC(=O)c2cccc(C3CCc4c(cc(OC)c(OC)c4OC)O3)c2)cc(OC)c1OC (configuration not stated)
**Result** 11.6

**Query** State, in one line, measured growth of O=C(c1ccccc1)c1ccc2nc(-c3ccc(F)cc3)[nH]c2c1
**Result** 74.9

**Query** State, in one line, measured growth of COc1cc(CNC(=O)/C=C/c2ccc3c(c2)OCO3)ccc1OCc1cn(-c2cccc(C(F)(F)F)c2)nn1
**Result** 30

**Query** State, in one line, measured growth of Cn1cc(-c2nnc(N)nc2-c2c[nH]c3ccc(F)cc23)c2cccnc21
**Result** 80.2

**Query** State, in one line, measured growth of COCOc1cc2c(=O)c(C)c(C(=O)N[C@@H](Cc3ccccc3)C(O)C(=O)NCc3ccccc3)oc2cc1OC (some centres not stated)
**Result** 57.3

**Query** State, in one line, measured growth of COc1ccc(/C=N/NC(=O)Cn2nc(Cc3ccc(OC)cc3)c3onc(C)c3c2=O)cc1
**Result** 64

====

Field: growth. Provide a value for each of the molecules that follow.
System: OVCAR-5 ovarian
Method: NCI-60 one-dose screen, 48 h (100 = growth as untreated, 0 = no growth, -100 = all killed)
Experimental context: 10 µM unless noted
Compounds without any hit were thinned out: in the full panel of roughly 83,000, 20% have a hit.
Numbers only here, please. The scale is %.

**Query** State, in one line, measured growth of O=c1[nH]c2ccccc2cc1CSc1cccc(Nc2nccc(-c3ccc4ccccc4c3)n2)c1
**Result** 114

**Query** State, in one line, measured growth of Cc1c(C(=O)NNC(=O)c2ccc(Cl)cc2)nnn1-c1ccc(Br)cc1
**Result** 95.2

**Query** State, in one line, measured growth of Cn1cc(-c2nc(N)nnc2-c2c[nH]c3ccc(Br)cc23)c2cc(Br)cnc21
**Result** 21.8

**Query** State, in one line, measured growth of COc1cc(/C=C2\C(=N)N=C(SCc3nc4ccccc4[nH]3)NC2=O)ccc1O
**Result** 109

====

System: EKVX NSCLC
Method: NCI-60 one-dose screen, 48 h
Experimental context: 10 µM unless noted
This is part of a sample that, as a whole, favours compounds with a hit. Of some 83,000 tested, about 20% had one in any assay. The source made the active and inactive calls. The calls were made as follows: active = growth percent below 10; inactive = the rest.
Reply using exactly one outcome from Y = active, N = inactive

**Query** Hello, I am checking results. What call was entered for Cc1ccc(C2=NN(c3nc(-c4cc5ccccc5oc4=O)cs3)C(c3ccc(C)cc3)C2)cc1 (stereo not drawn) ?
**Result** N

**Query** Hello, I am checking results. What call was entered for Brc1ccc(N/N=C/c2c[nH]c3ccc(Br)cc23)nc1 ?
**Result** Y

**Query** Hello, I am checking results. What call was entered for NS(=O)(=O)c1ccc(-n2cc(-c3cccc(NC(=O)c4ccc(Cl)c(C(F)(F)F)c4)c3)nn2)cc1 ?
**Result** N

====

Tested on: KM12 colon
Method: NCI-60 one-dose screen, 48 h
Experimental context: 10 µM unless noted
This is part of a sample that, as a whole, favours compounds with a hit. Of some 83,000 tested, about 20% had one in any assay. Active and inactive are the calls of the source. The calls were made as follows: active = growth percent below 10; inactive = the rest.
Reply using exactly one outcome from active, inactive

**Query** Hello, I am checking results. What call was entered for Cc1nc(Nc2ccccn2)sc1C(=O)CC(SCC(=O)Nc1ccc(Cl)cc1)c1ccccc1F (stereo not given) ?
**Result** active

**Query** Hello, I am checking results. What call was entered for O=C1N/C(=N\c2nccs2)S/C1=C\C=C/c1ccccc1 ?
**Result** inactive

**Query** Hello, I am checking results. What call was entered for CC(=O)c1cccc(NC(=O)CCC(=O)NS(=O)(=O)c2ccc(C)cc2)c1 ?
**Result** inactive

**Query** Hello, I am checking results. What call was entered for CCCCSc1nc(NCCc2c[nH]c3ccccc23)c(C#N)c(-c2ccc(F)cc2)n1 ?
**Result** inactive

**Query** Hello, I am checking results. What call was entered for CCOc1ccc(C(=O)NC(=S)Nc2ccc(S(N)(=O)=O)cc2)cc1 ?
**Result** inactive

**Query** Hello, I am checking results. What call was entered for O=c1oc2ccc(Br)cc2cc1C1=CSc2nc3sc4c(c3c(=O)n2N=C1)CCCC4 ?
**Result** inactive

**Query** Hello, I am checking results. What call was entered for Cc1ccc([C@H]2C(C(=O)c3ccc(Cl)cc3)C3(N[C@@H]2c2ccccc2)C(=O)Nc2ccccc23)cc1 (stereo not given in full) ?
**Result** inactive

**Query** Hello, I am checking results. What call was entered for C#CCOc1cc(N(CC)CC)ccc1C(C(=O)NC(C)(C)C)N(C(=O)C1CCc2cc(F)ccc2O1)c1ccc(Br)cc1 (stereo not given) ?
**Result** inactive

**Query** Hello, I am checking results. What call was entered for COc1c(F)ccc(C(=O)Nc2ccc3nc(NC(=O)C4CCCN(S(=O)(=O)c5cccc(Br)c5)C4)sc3c2)c1F (stereo not given) ?
**Result** inactive

**Query** Hello, I am checking results. What call was entered for CC1CN(c2oc(-c3ccc([N+](=O)[O-])cc3)nc2C#N)CC(C)O1 (stereo not given) ?
**Result** inactive

**Query** Hello, I am checking results. What call was entered for COc1cc(/C=C/C(=O)c2ccc(C)cc2)ccc1Oc1nc(Nc2ccc(F)cc2)nc(N(C)C)n1 ?
**Result** inactive

**Query** Hello, I am checking results. What call was entered for CCCCNC(=S)Nc1ccc(OCc2nc3ccccc3[nH]2)cc1 ?
**Result** active

**Query** Hello, I am checking results. What call was entered for Cn1cc(-c2cc3nc(-c4cn(C)c5ncc(Br)cc45)cc(N)n3n2)c2cc(Cl)ccc21 ?
**Result** active

**Query** Hello, I am checking results. What call was entered for COc1cc(CNC(=O)/C=C/c2ccc3c(c2)OCO3)ccc1OCc1cn(-c2ccc([N+](=O)[O-])cc2)nn1 ?
**Result** inactive

**Query** Hello, I am checking results. What call was entered for NS(=O)(=O)c1ccc(N=Nc2c(O)n(CC(=O)Nc3ccccc3)c3ccccc23)cc1 ?
**Result** inactive
